# Study target: AMP-activated protein kinase, AMPK (Homo sapiens) (UniProt P54646+O43741+P54619+Q9UGJ0+Q9Y478+Q13131+Q9UGI9)
# Test: AMP-dependent Kinase enzyme assay. An in vitro enzyme assay that detects ADP turnover that is directly proportional to AMPK activity. This uses naive AMPK that is activated during the assay with MK-8722
# Assay type: functional
# Design: scale not given: direction of the effect not stated beside the values
# Conditions: 30 µM
Measured parameter: Percent Effect (%)

* COc1ccc(CCC(=O)NC2CCC(O)CC2)cc1OC (configuration not stated) | -3.83
* O=C(CN1CCCC1Cn1cncn1)NC(C1CC1)C1CC1 (configuration not stated) | 2.21
* COCc1nn(C(C)C)c2c1CCN(Cc1ccc(C)s1)C2 | -1.91
* Cc1nn(C)cc1CN1CCC(C2Nc3ccccc3S(=O)(=O)N2)CC1 (configuration not stated) | 11.9
* O=C(c1ccc[nH]1)N1CCc2c(COCC3CC3)cncc2C1 | 0.508
* CCc1noc(CNc2ccc(F)cc2OCC2CC2)n1 | -7.79
* Cc1nc(C2CCCN(C(=O)c3cccc4c3OCO4)C2)no1 (configuration not stated) | 6.75
* CCNC(=O)N1CCCCC1CCO (configuration not stated) | -0.623
* CC(=O)N(Cc1noc(C)n1)C1CCN(Cc2ccccc2C#N)C1 (configuration not stated) | 1.41
* CC(C)c1noc(CCC(=O)NC(C)c2nnc3n2CCCCC3)n1 (configuration not stated) | -3.53
* COc1ccc(C2CCCCCN2S(=O)(=O)N(C)C)cc1 (configuration not stated) | -11.6
* CCN(CC)C(=O)CN(C)C1CCc2ccccc21 (configuration not stated) | -0.859

---

# Study target: Proteasome subunit beta (Trypanosoma cruzi)
# Sequence (whole entry): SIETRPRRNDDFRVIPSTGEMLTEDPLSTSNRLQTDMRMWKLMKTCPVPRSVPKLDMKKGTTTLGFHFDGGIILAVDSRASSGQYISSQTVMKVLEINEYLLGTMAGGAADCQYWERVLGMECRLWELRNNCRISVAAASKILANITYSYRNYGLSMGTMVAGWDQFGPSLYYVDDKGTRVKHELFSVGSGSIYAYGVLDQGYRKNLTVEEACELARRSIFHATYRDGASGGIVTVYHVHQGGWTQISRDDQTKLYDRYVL
# Test: Trypanosoma cruzi proteasome chymotrypsin-like activity (TcProtChymo) assay. Further: in the data most compounds retested in dose-response had high values.
# Format: functional
# Design: scale not given: direction of the effect not stated beside the values
# Conditions: 9.37 µM
Percent Effect values for the molecules below.
Measured parameter: Percent Effect (%)

* CNC(=O)c1nc2c(s1)CCN(C(=O)c1cccnc1)CC2 | 3.42
* COc1ccccc1C(=O)N1Cc2cc(C)ccc2OCC1CN(C)C (stereo not drawn) | 14.5
* CN(CCc1cccs1)C1CCCN(Cc2noc(C3CC3)n2)C1 (stereo not drawn) | 15.6
* Cc1ccccc1-c1cc(NC(=O)CC(C)C)n(CCO)n1 | 5.46
* COc1ccc(NC(=O)CCC2CCCN(Cc3ncon3)C2)cc1Cl (stereo not drawn) | 24.8
* Cc1ccc(C(=O)N2CCN(C(=O)NC(C)Cn3ccnc3)CC2)o1 (stereo not drawn) | 4.51
* Cc1noc(C(C)C)c1C(=O)NCc1cccc(N(C)C)c1 | 8.28
* CC(C)N1CCCC(CCCc2ccccn2)(C(=O)O)C1 (stereo not drawn) | 12.3
* CC(C)CN1C(=O)c2ccc(C(=O)NCCc3c[nH]cn3)cc2C1=O | 8.87
* CC(Cn1cccn1)NC(=O)Nc1ccc(F)cc1 (stereo not drawn) | 22.1
* Cc1nc(C(C)(C)NC(=O)Nc2ccccc2)no1 | 6.92
* O=C(CSc1nc2c(cnn2CCO)c(=O)[nH]1)N1CCCCCC1 | 11.4
* CCOc1cccc2c1OCC(C(=O)NS(=O)(=O)c1ccc(C)s1)=C2 | 9.01
* CN(C)C(CNS(=O)(=O)c1ccc(F)cc1F)c1cccn1C (stereo not drawn) | 10.8
* c1ccc(-n2nnnc2CN2CCCC(Cn3cncn3)C2)cc1 (stereo not drawn) | 9.61
* CO[C@H]1CN(Cc2cccc(C#N)c2)[C@@H]2COC[C@H]12 | 7.52
* Cc1cc(C)n(CCC(=O)N2CCC(c3nc(C(C)C)no3)CC2)n1 | 16.5
* CC(NC(=O)NCCNc1cnccn1)c1cccs1 (stereo not drawn) | 3.21
* O=C(NCCN1CCCCC1)c1nc2ccccc2c(=O)[nH]1 | 13.7
* O=C(c1ccc(Cl)o1)N1CCCC(c2cc(C(F)(F)F)[nH]n2)C1 (stereo not drawn) | 2.45
* CNC(=O)N1CC[C@H]2N(C)CC[C@@]2(C(=O)Nc2ccccc2)CC1 | 2.45
* O=C(Cc1c[nH]c2ccccc12)N1CCN(C(=O)c2ccoc2)CC1 | 12.9
* CCc1nnc2n1CCN(C(=O)c1ccc3nc(C)c(C)nc3c1)C2 | 20.7
* Cc1cnn(CCC(=O)N2CCCC(c3cc(C(N)=O)[nH]n3)C2)c1 (stereo not drawn) | -0.901
* CCCNC(=O)CNc1cc(C#N)ccc1OCC | 11.7
* COCCNc1nc(C2CCCC2)nc2c1CCNCC2 | -38.6
* CCC(O)CNC(=O)c1coc(COc2ccc3sc(C)nc3c2)n1 (stereo not drawn) | 0.71
* Cc1noc(C)c1C(=O)N1CCCC1c1c(C)nn(C)c1Cl (stereo not drawn) | -1.72
* Cc1ccc(CNC(=O)N2CCCCC2CCNS(C)(=O)=O)cc1 (stereo not drawn) | 12.6
* CC(C)c1nn(CC(=O)N2CCCCC2)c(=O)c2c1cnn2C(C)(C)C | 16.5
* CSCC(C)(O)CNC(=O)c1ccc(Br)cc1C (stereo not drawn) | 8.15
* Cn1cnnc1C1CCCN(C(=O)NCCc2ccccc2F)C1 (stereo not drawn) | 6.71
* COCc1ccccc1CNCc1c(C)nn(C)c1N(C)C | -5.04
* Cn1cc(C(=O)NC2CCN(C(=O)NCCSC(F)(F)F)CC2)cn1 | 13
* Cc1cnc(CN(C)C2CCN(CC(=O)N(C)c3nccs3)C2)o1 (stereo not drawn) | 13.2
* CCc1c(C)sc(NC(=O)CN2CCN(CC)CC2)c1C(=O)OC | -2.46
* CC1CN(CC(=O)Nc2nncs2)CCN1Cc1nccn1C (stereo not drawn) | 4.67
* Cc1nc(CN2CCC3(CCN(c4ncc(F)cn4)C3)C2=O)cs1 (stereo not drawn) | 21.4
* CC(NC(=O)COc1ccc(F)cc1)c1nnc2n1CCCCC2 (stereo not drawn) | 0.36
* COc1ccccc1CNC(=O)Cn1ncc2c1c(C)nn2C | 12.8
* c1ccc(Cn2cc(CNC3CCc4ncnn4C3)cn2)cc1 (stereo not drawn) | 5.66
* CS(=O)(=O)N1CC[C@H]2O[C@H](C(=O)NCCc3ccncc3)CC[C@H]21 | -1.03
* CC(NC(=O)c1ccc2c(c1)OCC(=O)N2)c1ccccc1F (stereo not drawn) | 9.39
* CCN(Cc1ccc2c(c1)OCCO2)C(=O)NCc1cc[nH]n1 | 7.03
* CC(C)c1noc(C(C)N2CCN(CCO)CC2)n1 (stereo not drawn) | 12.2
* CN(Cc1ccsc1)C(=O)c1cccc(S(=O)(=O)NC(C)(C)C)c1 | 12
* CCN(CC1CCOC1)C(=O)c1ccccc1NS(=O)(=O)CC (stereo not drawn) | 6.34
* Cc1cnn(CC(C)NCc2nc(-c3cccnc3)no2)c1 (stereo not drawn) | 13

---

# Study target: Tyrosyl-tRNA synthetase, putative (Trypanosoma cruzi (strain CL Brener))
# Test: Trypanosoma cruzi tyrosyl tRNA synthetase (TcYRS) SOP
# Type: functional
# Set-up: scale not given: direction of the effect not stated beside the values
# Conditions: 30 µM
Measured parameter: Percent Effect (%)

• Cc1nc(-c2ccccc2)n(CC(=O)NCC(C)C)n1 = 13.6
• COCc1ccccc1CNc1nnc(C)c(C)c1C#N = 6.1
• Cc1csc(N2CCN(C(=O)Cc3ccsc3)CC2)n1 = 30.9
• c1ncn(CC2CCCCN2Cc2noc(C3CC3)n2)n1 (stereo not drawn) = 21.9
• CNC(=O)c1nc2c(s1)CCN(C(=O)c1cccnc1)CC2 = 5
• CS(=O)(=O)NC1CCN(C(=O)NCCNc2ccccn2)CC1 = 1.22
• CN(CCc1ccccc1)c1cnn(CC(=O)N2CCSCC2)c(=O)c1 = 2.5
• CCn1cc(NC(=O)NCC(O)c2ccccc2)cn1 (stereo not drawn) = 13.9
• Cc1ccc(CN2CCOC3(CCCN(C(=O)c4ccco4)C3)C2)s1 (stereo not drawn) = 13.6
• CC1CCN(C(=O)CN(Cc2ccco2)C2CC2)CC1 = 7.06
• CC(C)Oc1ccccc1C1CC(=O)Nc2c1cnn2C (stereo not drawn) = 2.6
• Cc1ccoc1-c1nnc(CNCCn2cccn2)o1 = 24.1
• Cc1ccc(C(=O)N2Cc3ccccc3C2)cc1N1CCNC1=O = 13.6
• CC(C(=O)NCc1ccc(N2CCNC(=O)C2)cc1)n1cncn1 (stereo not drawn) = 21.9
• CN(CC1(O)CCCCC1)C1CCCN(Cc2noc(C3CC3)n2)C1 (stereo not drawn) = 13.6
• CC(C)(O)C1CCN(C(=O)Nc2nc(-c3ccccc3)ns2)CC1 = 3.7
• CCn1cnnc1CNC(=O)N1CCCN(C(C)=O)CC1 = 25.9
• O=C(CCc1ccsc1)NCC1CCN(c2ccccc2)C1 (stereo not drawn) = 7.69
• CN(C)C(=O)NC1COC2(CCN(Cc3ccccc3)CC2)C1 (stereo not drawn) = -6.41
• CCc1ccc(CN2CCCC(CO)(CCOC)C2)cc1 (stereo not drawn) = 1.24
• Cc1ccc(C(=O)N2CCN(C(=O)NC(C)Cn3ccnc3)CC2)o1 (stereo not drawn) = 19.5
• O=c1cc2c(nn1CN1CCN(c3ccccc3)CC1)CCC2 = 15.4
• CN(C)[C@@H]1CCN(c2ncccn2)[C@H]1Cc1ccccc1 = 6.17
• CCOc1cccc(CNC(=O)NCC(O)c2cccc(F)c2)c1 (stereo not drawn) = 23.5
• Cc1nc(CN2CCCC(N(C)Cc3c(C)noc3C)C2)no1 (stereo not drawn) = 9.41
• COc1cccc2c1OCC(CNC(=O)CSc1nc(N)n[nH]1)C2 (stereo not drawn) = 21
• CCC(NC(=O)C1CCN(S(C)(=O)=O)CC1)c1ccc(OC)c(OC)c1 (stereo not drawn) = 1.24
• Cn1cc(CCC(=O)N2CCN(Cc3ccncc3)CC2)cn1 = 14.6
• CSc1cccc(CN(C)C(=O)C2CC(=O)N(CCN(C)C)C2)c1 (stereo not drawn) = 16.1
• CC(C)c1nc2n(n1)CC(NCc1nnc(-c3ccco3)o1)CC2 (stereo not drawn) = 6.17
• Cn1ccc(C(=O)NC2CCC23CCN(C(=O)c2ccncc2)CC3)c1 (stereo not drawn) = 13.6
• OCCn1cc(CN2CCN(CCOCC(F)(F)F)CC2)cn1 = 3.66
• COc1ccc(C(=O)N(C)Cc2nnc3ccccn23)c(OC)c1 = 14.1
• CN(Cc1nccn1CC(F)(F)F)C(=O)c1ccc(F)c(F)c1 = 13
• CC(C)(C)c1nc(CN2CCC(c3nc4cc(Cl)ccc4o3)CC2)no1 = 0
• CNC(=O)c1cc2c(nc1NCC(C)C)CCN(S(=O)(=O)C1CC1)CC2 = 8.64
• CN(C)C(C(=O)N1CCC(N2CCSCC2)CC1)c1ccccc1F (stereo not drawn) = 20.5
• c1ccc(-n2ncc(CNCC3CCCN3c3cccnn3)n2)cc1 (stereo not drawn) = 18.5
• COc1cccc2cc(CNCc3ccnc(N4CCOCC4)c3)oc12 = -11.1
• CC(C)S(=O)(=O)NCC1CCCN(C(=O)c2cccnc2)C1 (stereo not drawn) = 10
• N#Cc1cccnc1NCCNC(=O)N1CCCC(C(F)(F)F)C1 (stereo not drawn) = 19.5
• O=C(COCc1ccccc1Cl)N1CCCC(n2cccn2)C1 (stereo not drawn) = 11.8
• Cc1nc(CN2CCCC(NCc3c(C)nc4sccn34)C2)no1 (stereo not drawn) = 19.5
• Cc1cc(C)n(CC2CCCN2C(=O)c2ccc3c(c2)nnn3C)n1 (stereo not drawn) = 7.5
• Cn1c(C(=O)N2CCC(C(=O)N3CCCC3)CC2)c(Cl)c2ccccc21 = 13.6
• O=C(N[C@@H]1CN(Cc2ccc3c(c2)OCO3)[C@@H]2CCCO[C@@H]21)C1CC1 = -60
• Cc1nc(C)n(C2CCCN(C(=O)c3cnc[nH]3)C2)n1 (stereo not drawn) = 1.24
• O=C(Cc1ccsc1)N1C[C@@H]2CN(Cc3ccoc3)CCO[C@@H]2C1 = 7.69
